system: Erysiphe graminis f. sp. tritici; assay: In vivo fungicidal activity on host plants, Wheat Powdery Mildew (WPM); settings: 400 ppm; sprayed on host plants before inoculation
measuredMetric: Disease control rating, WPM

Here is how some compounds turned out for Disease control rating, WPM.
                                 cpdsmiles                       assaytarget  experimentalvalue
0  N#Cc1c(-c2ccc(Br)s2)[nH]c(C(F)(F)F)c1Br  Erysiphe graminis f. sp. tritici          7 (90-95)
1          N#Cc1cc(C(F)(F)F)[nH]c1-c1cccs1  Erysiphe graminis f. sp. tritici            9 (100)
2    N#Cc1c(-c2oc3ccccc3c2Cl)[nH]c(Cl)c1Cl  Erysiphe graminis f. sp. tritici              0 (0)

QUERY: Please report the recorded Disease control rating, WPM for FC(F)(F)c1[nH]c(-c2ccc(Cl)cc2)cc1-c1csc(Br)c1 .
RESULT: 0 (0)

QUERY: Disease control rating, WPM lookup needed for FC(F)(F)c1[nH]c(-c2ccc(Cl)cc2)cc1-c1ccco1 , thanks.
RESULT: 0 (0)

QUERY: Consider the compound shown here: O=[N+]([O-])c1c(-c2ccc(Cl)cc2)[nH]c(C(F)(F)F)c1-c1csc(Br)c1 What is its recorded Disease control rating, WPM?
RESULT: 0 (0)

QUERY: Given O=[N+]([O-])c1ccc(-c2c(C(F)(F)F)[nH]c(-c3ccc(Cl)cc3)c2[N+](=O)[O-])s1 , state its recorded Disease control rating, WPM.
RESULT: 0 (0)

QUERY: For O=[N+]([O-])c1c(-c2ccc(Cl)cc2)[nH]c(C(F)(F)F)c1-c1csc(Br)c1Br , what is its reported Disease control rating, WPM?
RESULT: 4 (45-59)

QUERY: Entry N#Cc1c(Cl)[nH]c(-c2ccc(Cl)s2)c1Br : reported Disease control rating, WPM = ?
RESULT: 0 (0)

QUERY: Requested field: Disease control rating, WPM. Item: N#Cc1cc(-c2ccc(Cl)s2)[nH]c1Cl
RESULT: 0 (0)
